B1: LINE1-full (parent)
chain: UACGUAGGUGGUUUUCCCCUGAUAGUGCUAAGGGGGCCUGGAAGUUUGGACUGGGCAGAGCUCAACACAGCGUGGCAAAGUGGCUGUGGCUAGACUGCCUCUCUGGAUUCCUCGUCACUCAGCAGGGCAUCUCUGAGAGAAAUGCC

# Variants of: B1
# procedure_text: self-cleavage, relative activity (ratio to wild type); higher = more cleavage; in vitro, sequencing; the parent is a self-cleaving ribozyme
assay_metric: self-cleavage
Could you respond with only the numeric value?

The following variants have reported results that may help.
{"mutations": "U47A G106A", "assay_value": 1.3}
{"mutations": "G60A G105U", "assay_value": 0.01}
{"mutations": "U1G G114C", "assay_value": 0.52}
{"mutations": "U15C G127A", "assay_value": 1.05}
{"mutations": "U96A A136G", "assay_value": 0.09}

What value of self-cleavage has been reported for the following variant? G48A U143A
1.64

Let us now turn to G106A A121G
1.78

Let us now turn to U45G C68U
0.12

Let us now turn to G40U A59G
0.05

Let us now turn to U14C G36A
1.55
